These entries and their values trace back to patent US20240270821A1.

# experimental-system: hGLP-1R (Homo sapiens, UniProt P43220)
# Sequence (P43220 24-463): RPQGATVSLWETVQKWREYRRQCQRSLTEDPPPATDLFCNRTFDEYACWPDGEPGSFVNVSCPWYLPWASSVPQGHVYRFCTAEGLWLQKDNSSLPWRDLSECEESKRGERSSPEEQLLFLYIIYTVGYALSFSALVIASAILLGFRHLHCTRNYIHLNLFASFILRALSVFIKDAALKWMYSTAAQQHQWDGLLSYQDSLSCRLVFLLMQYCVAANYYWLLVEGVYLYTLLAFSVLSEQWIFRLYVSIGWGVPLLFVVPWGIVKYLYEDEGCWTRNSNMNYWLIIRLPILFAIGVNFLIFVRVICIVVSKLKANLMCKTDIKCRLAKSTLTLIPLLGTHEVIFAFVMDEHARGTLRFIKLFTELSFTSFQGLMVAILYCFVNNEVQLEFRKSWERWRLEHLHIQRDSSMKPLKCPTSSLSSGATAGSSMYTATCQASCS
# test-method-notes: cell-based or functional assay
Starred links: 1 amine or outer side, 2 acyl side, 3 side chain; linkers in the order of their positions; H or OH if unused. Non-standard residues stand in square brackets, D forms with d. Groups on a side chain read outwards from the residue. No end group written: not given here. *: point of attachment. C20 diacid = O=C(O)CCCCCCCCCCCCCCCCCCC(=O)*; Phe(4-CN) = N#Cc1ccc(C[C@H](N)C(=O)O)cc1; αMePhe(2-F) = C[C@](N)(Cc1ccccc1F)C(=O)O; γGlu = O=C(O)[C@H](CCC(=O)[*:2])N[*:1]; αMeL = CC(C)C[C@](C)(N)C(=O)O; AEEA = NCCOCCOCC(=O)O; Aib = CC(C)(N)C(=O)O
measurement-name: Relative cAMP EC50 (nM)
The reply should contain only the number, in nM.

// recorded Relative cAMP EC50 for YXQGTFTSDFSXXLDKKAQXAFIEWLLEGGPSSGAXPPSGE (synthetic construct; SITE 2: note = 2-Aminoisobutyric Acid; SITE 12: note = L-ornithine; SITE 13: note = alpha-methyl-leucine; SITE 17: note = Lysine is chemically modified through conjugation of the epsilon-amino group of the Lysine side chain with (2-[2-(2-Amino-ethoxy)-ethoxy]-acetyl)-(gamma-Glu)) [Example 136] : 3.8

// recorded Relative cAMP EC50 for YXQGTFTSDXSQXLDKKAQXAFIEYLIAGGPSSGAPPPSGE (Aib, 4Pal, αMeL, Me4Pal; acylated lysine; amide; synthetic construct; SITE 2: note = 2-Aminoisobutyric Acid; SITE 10: note = 3-(4-Pyridyl)-L-alanine; SITE 13: note = alpha-methyl-leucine; SITE 17: note = Lysine is chemically modified through conjugation of the epsilon-amino group of the Lysine side chain with (Glu)2-(gamma-Glu)-CO-(CH2)16-CO2H; SI) [Example 1087] : 2.63

// recorded Relative cAMP EC50 for YXQGTXTSDYSIXLDKKAQXAFIEYLEEGGPSSGAPPPSEG (synthetic construct; SITE 2: note = 2-Aminoisobutyric Acid; SITE 6: note = alpha-methyl-L-phenylalanine; SITE 13: note = alpha-methyl-leucine; SITE 17: note = Lysine is chemically modified through conjugation of the epsilon-amino group of the Lysine side chain with (2-[2-(2-Amino-ethoxy)-ethoxy]-ace)) [Example 395] : 0.349

// recorded Relative cAMP EC50 for Y[Aib]QGT[αMePhe(2-F)]TSD[Phe(4-CN)]SKLLDKIAQK([AEEA-γGlu-C20 diacid])AFIEYLIEGGPSSGEPPPSGS-NH2 [Example 364] : 1.1

// recorded Relative cAMP EC50 for Y[Aib]QGTFTSDYSI[αMeL]LDKQAAK([AEEA-AEEA-γGlu-C20 diacid])QFVNWLLA[Aib]GPSSGEPPPSEG-NH2 [Example 325] : 1.56

// recorded Relative cAMP EC50 for YXQGTFTSDFSXXLDKKAQXAFIEYLLEGGPSSGAPPXGGS (non-natural residues; lipidated Lys AEEA-γGlu-C18 diacid; C-term amide; synthetic construct; SITE 2: note = 2-Aminoisobutyric Acid; SITE 12: note = L-ornithine; SITE 13: note = alpha-methyl-leucine; SITE 17: note = Lysine is chemically modified through conjugation of the epsilon-amino group of the Lysine side chain with (2-[2-(2-Amino-ethoxy)-ethoxy]-acetyl)-(gamma-Glu)) [Example 237] : 3.4

// recorded Relative cAMP EC50 for YXQGTXTSDXSIXLDKKAQXXFIEYLSEGGPSSGEPPPSGSEE (Aib, αMeF(2F), 4Pal, Orn; acylated lysine; amide; synthetic construct; SITE 2: note = 2-Aminoisobutyric Acid; SITE 6: note = alpha-methyl-2-fluoro-L-phenylalanine; SITE 10: note = 3-(4-Pyridyl)-L-alanine; SITE 13: note = alpha-methyl-leucine; SITE 17: note = Lysine is chemically modified through conjugation of the epsilon-amino group of the Lysine) [Example 637] : 1.08

// recorded Relative cAMP EC50 for YXQGTXTSDXSIXLDXKAQXXFIEXLIEGGPSSGEPPPSGE (synthetic construct; SITE 2: note = 2-Aminoisobutyric Acid; SITE 6: note = alpha-methyl-2-fluoro-L-phenylalanine; SITE 10: note = 3-(4-Pyridyl)-L-alanine; SITE 13: note = alpha-methyl-leucine; SITE 16: note = L-ornithine; SITE 17: note = Lysine is chemically modified through conjugation of the epsil) [Example 682 (SEQ ID NO: 688)] : 0.212

// recorded Relative cAMP EC50 for YXQGTXTSDXXIXLDXKAQXEFIEXLIEGGPSSGAPPPSGGGE (non-natural residues, AEEA-γGlu-C18 diacid lysine acylation, C-terminal amide; synthetic construct; SITE 2: note = 2-Aminoisobutyric Acid; SITE 6: note = alpha-methyl-L-phenylalanine; SITE 10: note = 3-(4-Pyridyl)-L-alanine; SITE 11: note = alpha-methyl-L-serine; SITE 13: note = alpha-methyl-leucine; SITE 16: note = L-ornithine; SITE 17: note = Lysine is chemically modified th) [Example 1168] : 0.422

// recorded Relative cAMP EC50 for YXQGTFTSDXSKXLDKKAQXAFIEYLLAGGPSSGEPPPSGE (Aib, 4Pal, αMeL; acylated Lys; C-term amide; synthetic construct; SITE 2: note = 2-Aminoisobutyric Acid; SITE 10: note = 3-(4-Pyridyl)-L-alanine; SITE 13: note = alpha-methyl-leucine; SITE 17: note = Lysine is chemically modified through conjugation of the epsilon-amino group of the Lysine side chain with (2-[2-(2-Amino-ethoxy)-ethoxy]-acetyl)) [Example 28] : 3.68

// recorded Relative cAMP EC50 for YXQGTFTSDXSQXLDXKAQXAFIEXLIEXGPSSGAPPPSGSEE (non-natural residues; acylated Lys; C-terminal amide; synthetic construct; SITE 2: note = 2-Aminoisobutyric Acid; SITE 10: note = 3-(4-Pyridyl)-L-alanine; SITE 13: note = alpha-methyl-leucine; SITE 16: note = L-ornithine; SITE 17: note = Lysine is chemically modified through conjugation of the epsilon-amino group of the Lysine side chain with D-Glutami) [Example 1112] : 0.957

// recorded Relative cAMP EC50 for YXQGTXTSDXXIXLDXKAQXXFIEXLLEGGPSSXEPPPE (synthetic construct; SITE 2: note = 2-Aminoisobutyric Acid; SITE 6: note = alpha-methyl-2-fluoro-L-phenylalanine; SITE 10: note = 3-(4-Pyridyl)-L-alanine; SITE 11: note = alpha-methyl-L-serine; SITE 13: note = alpha-methyl-leucine; SITE 16: note = L-ornithine; SITE 17: note = Lysine is chemically mo) [Example 380] : 0.354

// recorded Relative cAMP EC50 for YXQGTFTSDXSRXLDKKAQXAFIEYLLAGGPSSGAPPPSGE (synthetic construct; SITE 2: note = 2-Aminoisobutyric Acid; SITE 10: note = 3-(4-Pyridyl)-L-alanine; SITE 13: note = alpha-methyl-leucine; SITE 17: note = Lysine is chemically modified through conjugation of the epsilon-amino group of the Lysine side chain with (2-[2-(2-Amino-ethoxy)-ethoxy]-acetyl)) [Example 113] : 3.93

// recorded Relative cAMP EC50 for Y[Aib]QGTFTSDYSI[αMeL]LDKQAAK([AEEA-AEEA-γGlu-C20 diacid])QFIEWLIEGGPSSGEPPPGAE-NH2 [Example 319] : 0.947

// recorded Relative cAMP EC50 for YXQGTFTSDXSQXLDKKAQXAFIEYLIEXGESSGAPPPSGS (non-natural residues, lipidated Lys, C-terminal amide; synthetic construct; SITE 2: note = 2-Aminoisobutyric Acid; SITE 10: note = 3-(4-Pyridyl)-L-alanine; SITE 13: note = alpha-methyl-leucine; SITE 17: note = Lysine is chemically modified through conjugation of the epsilon-amino group of the Lysine side chain with (2-[2-(2-Amino-ethoxy)-ethoxy]-acetyl)) [Example 226] : 1.97

// recorded Relative cAMP EC50 for YXQGTFTSDFSXXLDKKAQXAFIEWLLEXGSSSGAPPPSGT (synthetic construct; SITE 2: note = 2-Aminoisobutyric Acid; SITE 12: note = L-ornithine; SITE 13: note = alpha-methyl-leucine; SITE 17: note = Lysine is chemically modified through conjugation of the epsilon-amino group of the Lysine side chain with (2-[2-(2-Amino-ethoxy)-ethoxy]-acetyl)-(gamma-Glu)) [Example 264] : 4.67

// recorded Relative cAMP EC50 for YXQGTFTSDFSQXLDKKAQXAFIEYLLEAGPSSXAPPPSGT (no C-terminal amide; synthetic construct; SITE 2: note = 2-Aminoisobutyric Acid; SITE 13: note = alpha-methyl-leucine; SITE 17: note = Lysine is chemically modified through conjugation of the epsilon-amino group of the Lysine side chain with (2-[2-(2-Amino-ethoxy)-ethoxy]-acetyl)-(gamma-Glu)-CO-(CH2) 16-CO2H; SITE 20: n) [Example 780] : 1.26

// recorded Relative cAMP EC50 for YXQGTFTSDXSQXLDXKAQXAFIEYLIAXGPSSGAPPPSGSEE (non-natural residues; acylated Lys C18 diacid; C-term amide; synthetic construct; SITE 2: note = 2-Aminoisobutyric Acid; SITE 10: note = 3-(4-Pyridyl)-L-alanine; SITE 13: note = alpha-methyl-leucine; SITE 16: note = L-ornithine; SITE 17: note = Lysine is chemically modified through conjugation of the epsilon-amino group of the Lysine side chain with (gamma-Gl)) [Example 1091] : 1.23

// recorded Relative cAMP EC50 for YXQGTFTSDFSKXLDKKAQXAFIEYLLAGGPSSGEPPPSSE (Aib, αMeL; acylated Lys; C-terminal amide; synthetic construct; SITE 2: note = 2-Aminoisobutyric Acid; SITE 13: note = alpha-methyl-leucine; SITE 17: note = Lysine is chemically modified through conjugation of the epsilon-amino group of the Lysine side chain with (2-[2-(2-Amino-ethoxy)-ethoxy]-acetyl)-(gamma-Glu)-CO-(CH2) 18-CO2H; SITE 20: n) [Example 3] : 1.67

// recorded Relative cAMP EC50 for YXQGTFTSDXSXXLDXKAQXAFIEYLIAGGPSSGEPPPSGE (Lys acylated (γ-Glu)2-C18 diacid; non-natural residues; C-terminal amide; synthetic construct; SITE 2: note = 2-Aminoisobutyric Acid; SITE 10: note = 3-(4-Pyridyl)-L-alanine; SITE 12: note = L-ornithine; SITE 13: note = alpha-methyl-leucine; SITE 16: note = L-ornithine; SITE 17: note = Lysine is chemically modified through conjugation of the epsilon-amino group of the Lys) [Example 983] : 2.35

// recorded Relative cAMP EC50 for YXQGTFTSDFSKXLDKKAQXAFIEYLLAGGPSSGEPPPSGE (Aib, αMeL; acylated Lys; C-terminal amide; synthetic construct; SITE 2: note = 2-Aminoisobutyric Acid; SITE 13: note = alpha-methyl-leucine; SITE 17: note = Lysine is chemically modified through conjugation of the epsilon-amino group of the Lysine side chain with (2-[2-(2-Amino-ethoxy)-ethoxy]-acetyl)-(gamma-Glu)-CO-(CH2) 18-CO2H; SITE 20: n) [Example 2] : 1.65

// recorded Relative cAMP EC50 for Y[Aib]QGT[αMePhe(2-F)]TSD[Phe(4-CN)]SKLLDKIAQK([AEEA-γGlu-C20 diacid])AFIEYLIEGGPSSGAPPPSGS-NH2 [Example 363] : 1.47

// recorded Relative cAMP EC50 for YXQGTFTSDXSQXLDKKAQXAFIEYLIAGGPSSGAPPPSGSEE (synthetic construct; SITE 2: note = 2-Aminoisobutyric Acid; SITE 10: note = 3-(4-Pyridyl)-L-alanine; SITE 13: note = alpha-methyl-leucine; SITE 17: note = Lysine is chemically modified through conjugation of the epsilon-amino group of the Lysine side chain with (gamma-Glu)2-CO-(CH2)16-CO2H; SITE 20:) [Example 960] : 1.51
